These data points were gathered from PubChem BioAssay (NCI).

- Tested on: CAKI-1 renal
- PROCEDURE_DETAILS: NCI-60 one-dose screen, 48 h (100 = growth as untreated, 0 = no growth, -100 = all killed)
- CONDITIONS: 10 µM unless noted
Compounds without any hit were thinned out: in the full panel of roughly 83,000, 20% have a hit.
Ranges used to classify growth: low interval = under 40%, middle interval = from 40% up to 80%, high interval = 80% and over

| COMPOUND | ASSIGNED_LABEL |
| --- | --- |
| O=C(Nc1cc(Cl)cc(Cl)c1)Oc1c(Cl)c(Cl)c(Cl)c(Cl)c1Cl | middle interval |
| CCOC(=O)c1cn2ncnc(Oc3ccc(NC(=O)NC4CC4)c(Cl)c3)c2c1C | high interval |
| CCCCNC(=O)c1ccc2c(c1)nc(-c1ccccc1)n2C1CCCCC1 | high interval |
| COc1cc(/C=N/NC(=O)c2ccc(-n3cc(-c4ccccc4)nn3)cc2)cc(OC)c1OC | middle interval |
| CN(C)c1ccc([C@@H](C(=O)Nc2cccc([N+](=O)[O-])c2)N(C(=O)c2cc3ccccc3[nH]2)c2cccc([N+](=O)[O-])c2)cc1 | high interval |
| Cn1c(=O)c2[nH]c(SC/C(=N/O)c3ccc(Br)cc3)nc2n(C)c1=O | low interval |
| C=CCn1cc(-c2nc3ccccc3s2)c2cc(-c3ccc4c5c(cccc35)C(=O)N(CCO)C4=O)ccc21 | middle interval |
| CC1(C)CC[C@]2(CO)CC[C@]3(C)[C@](O)([C@H](O)C[C@@H]4[C@@]5(C)CCCNC(C)(C)[C@@H]5CC[C@]43C)[C@@H]2C1 | high interval |
| Nc1c(Br)cc2c(c1Br)Cc1cc([N+](=O)[O-])ccc1-2 | high interval |
| COc1ccccc1S(=O)(=O)Nc1ccc2c3c(cc(CCC(=O)NCCCCNc4cccc5c4C(=O)N(C4CCC(=O)NC4=O)C5=O)cc13)C(=O)N2C (stereo not drawn) | low interval |
| Cc1cc(C)c2c(c1)N(C)c1ncnc(-n3c(C)nc4cc(C)ccc43)c1CC2C (stereo not drawn) | low interval |
| CCOC(=O)c1c(C)nc2ccccc2c1/C=C/c1ccc(F)cc1 | middle interval |
| Cc1ccc(-c2nc(SCC(=O)N3CCN(c4cc5c(cc4F)c(=O)c(C(=O)O)cn5C4CC4)CC3)nc(Cl)c2C#N)cc1 | high interval |
| COc1cc2c3c(c4c5ccccc5[nH]c4c2c(OC)c1OC)C(=O)N(CCN1CCCCC1)C3=O | low interval |
| CCN1C(=O)N(CC)C2C1NN=c1s/c(=C\c3ccc(OC)cc3)c(=O)n12 (stereo not drawn) | low interval |
| COC(=O)/C=C1/SC(=NCc2ccccc2)N(CCc2c[nH]c3ccccc23)C1=O | high interval |
| CNC(=O)c1cc(Oc2ccc3c(c2)sc2nc(-c4cc(C(F)(F)F)cc(C(F)(F)F)c4)cn23)ccn1 | middle interval |
| Cc1ccc(S(=O)(=O)OCC#CCOS(=O)(=O)c2ccc(C)cc2)cc1 | low interval |
| Cc1cc(O)c(=O)cc2c1C[C@H]1CC(C)(C)/C=C/C[C@]3(C)Oc4cc(=O)c(O)cc(C)c4C[C@H]3C[C@H](O)[C@@]1(C)O2 | low interval |
| O=C1/C(=C/c2c[nH]c(=O)[nH]c2=O)SC(=S)N1Cc1ccccc1 | high interval |
| CN(C)CCCn1c2c(c3cnccc3c1=O)C(=O)c1ccccc1-2 | low interval |
| CCN1C(=O)N(c2ccccc2)C2NC(=S)N(/N=C/C=C/c3ccccc3OC)C21 (stereo not drawn) | low interval |
| COc1cc(OC)c2c(=O)c3c(CC=C(C)C)cc(OC)c(O)c3oc2c1 | middle interval |
| CCCN(CCSSCCNc1nc(N(C)O)nc(N(C)O)n1)c1nc(N(C)O)nc(N(C)O)n1 | low interval |
| Fc1cccc(CNc2c3ccccc3nc3ccccc23)c1 | low interval |
| Cc1ccc(OCCOCCOCCOCCOCCOc2ccc(C)n(O)c2=S)c(=S)n1O | low interval |
| CCOc1ccc(NC(=O)Nc2ccc(OCC)cc2)cc1 | high interval |
| COc1ccc(C/C(C)=C(\c2ccc(Cl)cc2)c2ccc(OCCCN(C)C)cc2)cc1 | high interval |
| C/C(=N\Nc1ccccc1)c1ccc(NC2=CC(=O)c3ccccc3C2=O)cc1 | middle interval |
| Oc1nc(NCc2ccccc2)sc1/C=C1\C=Nc2ncccc21 | middle interval |
| CN1CCN(Cc2ccc(NC(=O)c3cncc(C#Cc4cnc(N)cc4C#N)c3)cc2C(F)(F)F)CC1 | low interval |
| COc1ccc2c(c1)C(C)Cc1c(ncnc1-n1cnc3cc(C)ccc31)N2C (stereo not drawn) | low interval |
| CCCCCCCCn1ccc2cc(NC(=O)CN=[N+]=[N-])ccc21 | high interval |
| O=C1/C(=C/c2cccc(Br)c2)COc2ccc(O)cc21 | middle interval |
| O=C(C[C@]1(O)C(=O)Nc2ccc(Br)cc21)c1ccco1 | high interval |

---

- System: ACHN renal
- PROCEDURE_DETAILS: NCI-60 one-dose screen, 48 h
- CONDITIONS: 10 µM unless noted
About 83,000 compounds went through this panel and 20% of them were active in at least one assay; those are over-represented in the sample as a whole. Calls of active or inactive are those of the source. Rule for the calls: active = growth percent below 10; inactive = the rest.
Outcomes: y = active, n = inactive

| MOLECULE | STUDY_SYSTEM | ASSIGNED_LABEL |
| --- | --- | --- |
| CCOC(=O)c1nnn(Cc2cc(=O)oc3ccc(O)cc23)c1C | ACHN renal | n |
| O=C(Cn1nc(-c2cccc3ccccc23)ccc1=O)NCc1cccc(Cl)c1 | ACHN renal | n |
| O=[N+]([O-])c1ccccc1Sc1ccccc1[N+](=O)[O-] | ACHN renal | n |
| CCOC(=O)C1=C(CC(O)c2ccc(OC)cc2OC)NC(=O)NC1c1ccccc1 (stereo not given) | ACHN renal | n |
| CC(C)Cc1nc(Nc2ccccc2)[nH]c(=O)c1C#N | ACHN renal | n |
| CNC(=O)Nc1ccc(-c2ccc3ncnc(Nc4cccc(Cl)c4)c3c2)cc1 | ACHN renal | n |
| COc1cc2ncnc(Nc3ccc(S(=O)(=O)Nc4nccs4)cc3)c2cc1OCCCN1CCCC1 | ACHN renal | n |
| Cc1cc(C(=O)CCCC(=O)c2cc(C)c(O)c(C)c2)cc(C)c1O | ACHN renal | n |
| COCC(=O)Oc1cc(-c2ccc(C)cc2C)c(OC(=O)COC)c(-c2ccc(C)cc2C)c1 | ACHN renal | y |
| N=C(N)c1ccc(-c2ccc(-c3ccccc3)o2)o1 | ACHN renal | n |
| COC(=O)[C@@]1(C)CC[C@]2(C)CC[C@]3(C)C4=CC=C5C(=CC(=O)C(O)=C5C)[C@]4(C)[C@@H](O)C[C@@]3(C)[C@@H]2C1 | ACHN renal | y |
| Fc1ccc(/C=C/[C@@H]2C[C@@H](F)CCO2)cc1 | ACHN renal | n |
| Cc1ccc(NC(=O)c2sc3nc(C)c(C(O)c4ccccc4)cc3c2N)cc1 (stereo not given) | ACHN renal | n |
| Cn1c(=O)[nH]c(=O)c2nc3c(nc21)-c1ccccc1C3=O | ACHN renal | n |
| O=C(NCCCCO)c1cncnc1Nc1ccc2c(ccn2Cc2cccc(F)c2)c1 | ACHN renal | n |
| O=C1O[C@@H](c2ccccc2Cl)[C@@H]2c3cc4c(cc3CCN12)OCO4 | ACHN renal | n |
| COc1cc2c(c(OC)c1OC)CCC(c1cccc(C(=O)Nc3ccc(Br)cc3)c1)O2 (stereo not given) | ACHN renal | n |
| Cc1c2ccccc2nc2cc3c(cc12)[C@H]1CC[C@]2(C)C(=O)CC[C@H]2[C@@H]1CC3 | ACHN renal | n |
| Cc1sc2nc(NCCN)[nH]c(=O)c2c1C | ACHN renal | n |
| O=C(NC1CCC(Br)CC1)C1CCCC(S(=O)(=O)NC2CCCCC2)C1 (stereo not given) | ACHN renal | n |
| CC/C(=C(/c1ccc(O)cc1)c1ccc(OCCN2CCCCC2)cc1)c1ccc(OC)cc1 | ACHN renal | n |
| O=C1/C(=C/c2ccccn2)SC(=S)N1N1CCOCC1 | ACHN renal | n |
| COc1ccc(C2CC(n3ccnc3)c3cc(OC)c(OC)c(OC)c32)cc1O (stereo not given) | ACHN renal | n |
| CCCCCCCCCCCCCCCCCCOc1ccccc1CC(=O)NCC[N+](C)(C)C | ACHN renal | n |
| c1csc(-c2cn3nc(-c4c[nH]c5ccccc45)sc3n2)c1 | ACHN renal | n |
| COc1cc(/C=C/c2cn[nH]c2-c2ccc(C)cc2)cc(OC)c1OC | ACHN renal | n |
| COc1ccc(Nc2ncc(C#N)c(NCCCNC(=O)C3CCC3)n2)cc1 | ACHN renal | n |
| C=C1C(=O)O[C@H]2[C@H]1CC/C(COC(=O)C(=O)c1c[nH]c3ccc(Cl)cc13)=C\CC[C@@]1(C)O[C@@H]21 | ACHN renal | y |
| CN1CC(c2ccc(Br)cc2)C(C(=O)c2ccc(Br)cc2)C12C(=O)Nc1ccccc12 (stereo not given) | ACHN renal | n |
| CCOC(=O)c1nnn(-c2no[n+]([O-])c2-c2ccc(OC)cc2)c1COc1cccc2cccnc12 | ACHN renal | n |
| Cc1[nH]n(-c2cccc(Cl)c2)c(=O)c1/C=C1\C=c2ccccc2=CC1=O | ACHN renal | y |
| O=C(/C=C/C12c3ccccc3C(c3ccccc31)C1C(=O)NC(=O)C12)c1ccc(Cl)cc1Cl (stereo not given) | ACHN renal | n |
| COc1cc2c(cc1-c1c(C)noc1C)ncc1nc(CN3CCOCC3)n([C@H](C)COC(F)F)c12 | ACHN renal | n |
| C=C(C)[C@@H]1CC[C@]2(C)[C@H](C=CC3=C4C[C@@](C)(CO)CC[C@]4(C)CC[C@]32C)[C@@]1(C)CCCN | ACHN renal | y |
| O=c1oc2c(cc1-c1ccccc1)c[n+]([O-])c1ccccc21 | ACHN renal | n |
| COC(=O)Cn1c2c(c3c(OC)cccc31)C(=O)c1ccccc1-2 | ACHN renal | n |
| O=C(/C=C/C12c3ccccc3C(c3ccccc31)C1C(=O)NC(=O)C12)c1ccco1 (stereo not given) | ACHN renal | n |
| COC(=O)c1c2c(c[n+]([O-])c1C)C(=O)C=C(NCc1ccccc1)C2=O | ACHN renal | y |
| CNCC[C@H](Oc1cccc2ccccc12)c1cccs1 | ACHN renal | n |
| CC1=C2[C@@H](CC1)[C@]1(C)O[C@@](C3CCNCC3)(C[C@H]1OC(=O)CO)[C@H]2OC(=O)/C=C/c1ccccc1 | ACHN renal | n |
